Give measured GI50 for each item. Keep answers brief.
Target: Her2 Exon 20 INSYVMA Ba/F3 (Homo sapiens, UniProt P04626, DUP772-775, cells depend on it)
Sequence (P04626 with tags, fused parts or gaps DUP772-775): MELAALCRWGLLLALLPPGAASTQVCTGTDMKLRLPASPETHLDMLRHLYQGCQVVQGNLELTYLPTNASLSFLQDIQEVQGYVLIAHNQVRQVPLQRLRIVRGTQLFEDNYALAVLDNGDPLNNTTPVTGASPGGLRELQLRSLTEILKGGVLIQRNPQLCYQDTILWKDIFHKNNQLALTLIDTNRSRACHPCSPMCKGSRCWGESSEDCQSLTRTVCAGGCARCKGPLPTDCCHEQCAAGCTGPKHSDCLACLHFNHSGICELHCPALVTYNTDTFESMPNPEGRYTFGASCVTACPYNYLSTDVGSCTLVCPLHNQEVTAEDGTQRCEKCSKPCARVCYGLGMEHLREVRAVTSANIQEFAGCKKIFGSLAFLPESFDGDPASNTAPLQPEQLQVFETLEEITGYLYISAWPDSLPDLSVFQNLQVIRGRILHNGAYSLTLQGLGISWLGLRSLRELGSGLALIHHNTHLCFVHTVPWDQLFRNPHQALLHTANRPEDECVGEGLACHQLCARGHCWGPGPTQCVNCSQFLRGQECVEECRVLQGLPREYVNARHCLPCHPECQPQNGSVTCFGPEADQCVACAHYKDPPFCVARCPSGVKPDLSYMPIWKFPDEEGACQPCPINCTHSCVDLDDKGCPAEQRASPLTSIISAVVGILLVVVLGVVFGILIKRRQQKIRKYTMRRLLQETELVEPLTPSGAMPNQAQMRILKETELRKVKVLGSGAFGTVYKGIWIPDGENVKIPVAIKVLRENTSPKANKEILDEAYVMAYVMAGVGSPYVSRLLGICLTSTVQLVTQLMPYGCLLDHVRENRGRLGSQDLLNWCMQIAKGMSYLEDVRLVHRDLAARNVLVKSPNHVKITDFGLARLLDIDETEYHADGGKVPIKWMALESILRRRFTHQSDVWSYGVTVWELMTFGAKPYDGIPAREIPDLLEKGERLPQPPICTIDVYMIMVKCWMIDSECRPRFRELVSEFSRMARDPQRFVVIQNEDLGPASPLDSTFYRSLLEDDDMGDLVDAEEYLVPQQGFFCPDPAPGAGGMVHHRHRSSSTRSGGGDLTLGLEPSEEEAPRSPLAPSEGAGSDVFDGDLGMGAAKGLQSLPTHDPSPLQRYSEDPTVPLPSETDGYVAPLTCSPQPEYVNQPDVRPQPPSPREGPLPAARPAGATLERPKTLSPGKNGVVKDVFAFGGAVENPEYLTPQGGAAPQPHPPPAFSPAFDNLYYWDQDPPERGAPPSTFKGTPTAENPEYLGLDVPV
Assay: Her2 Exon 20 INSYVMA Ba/F3 CellTiter-Glo
Type: cell-based
Conditions: CellTiter-Glo, 72 h, read-out: Her2 Exon 20 INSYVMA Ba/F3 CTG IC50

1. C=CC(=O)Nc1cc(-c2c(-c3ccc(N4CCN(C)CC4)cc3)[nH]c3ncc(C(=O)NC(C)C)cc23)ccc1C
100 to 500 nM
2. C=CC(=O)Nc1cc(-c2c(-c3ccc(N4CCN(C)CC4)cc3)[nH]c3ncc(C(=O)OC4COC4)cc23)ccc1C
500 to 1000 nM

# evaluate next
So, C=CC(=O)Nc1cc(-c2c(-c3ccc(N4CCN(C)CC4)cc3)[nH]c3ncc(C(=O)NCc4ccccc4)cc23)ccc1C [Example 118, 2,2,2-trifluoroacetate] ? Its GI50 was 100 to 500 nM

---

Give measured GI50 for each item. Keep answers brief.
Target: EGFR Exon 20 INSNPH Ba/F3 (Homo sapiens, UniProt P00533, DUP771-773, cells depend on it)
Sequence (P00533 with tags, fused parts or gaps DUP771-773): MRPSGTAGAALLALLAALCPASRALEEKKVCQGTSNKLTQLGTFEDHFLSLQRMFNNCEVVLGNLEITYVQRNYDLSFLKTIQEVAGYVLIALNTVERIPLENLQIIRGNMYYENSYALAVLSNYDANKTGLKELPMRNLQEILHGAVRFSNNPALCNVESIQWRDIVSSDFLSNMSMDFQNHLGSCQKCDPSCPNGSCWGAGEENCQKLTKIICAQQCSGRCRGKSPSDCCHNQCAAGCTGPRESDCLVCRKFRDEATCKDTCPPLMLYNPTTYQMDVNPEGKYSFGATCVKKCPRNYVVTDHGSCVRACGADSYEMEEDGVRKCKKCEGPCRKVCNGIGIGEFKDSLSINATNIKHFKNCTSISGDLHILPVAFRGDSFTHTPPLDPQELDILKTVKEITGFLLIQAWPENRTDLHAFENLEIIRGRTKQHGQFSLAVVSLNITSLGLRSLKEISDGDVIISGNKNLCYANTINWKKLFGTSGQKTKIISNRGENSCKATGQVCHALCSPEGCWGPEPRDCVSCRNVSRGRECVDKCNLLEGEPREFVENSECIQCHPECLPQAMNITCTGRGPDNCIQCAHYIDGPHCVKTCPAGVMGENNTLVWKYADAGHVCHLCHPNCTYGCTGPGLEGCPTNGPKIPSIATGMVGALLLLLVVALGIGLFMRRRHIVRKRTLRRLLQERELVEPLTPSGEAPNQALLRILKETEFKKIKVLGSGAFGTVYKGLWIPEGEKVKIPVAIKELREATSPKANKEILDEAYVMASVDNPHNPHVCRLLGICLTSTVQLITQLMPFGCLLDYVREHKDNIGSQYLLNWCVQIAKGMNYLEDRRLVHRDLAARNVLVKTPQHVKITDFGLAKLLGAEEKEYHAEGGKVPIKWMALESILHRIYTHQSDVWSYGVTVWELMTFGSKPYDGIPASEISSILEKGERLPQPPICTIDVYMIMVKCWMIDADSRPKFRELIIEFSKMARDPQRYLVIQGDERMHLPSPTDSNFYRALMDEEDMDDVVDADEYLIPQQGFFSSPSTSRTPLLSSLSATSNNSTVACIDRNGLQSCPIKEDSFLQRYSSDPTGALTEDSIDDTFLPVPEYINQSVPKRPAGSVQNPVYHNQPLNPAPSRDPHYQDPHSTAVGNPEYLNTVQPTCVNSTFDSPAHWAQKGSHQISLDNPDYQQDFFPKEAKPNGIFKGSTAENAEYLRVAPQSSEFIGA
Assay: EGFR Exon 20 INSNPH Ba/F3 CellTiter-Glo
Assay type: cell-based
Conditions: CellTiter-Glo, 72 h, read-out: EGFR Exon 20 INSNPH Ba/F3 CTG IC50

1. C=CC(=O)N1CCc2ccc(-c3c(-c4ccc(N5CCN(C(C)=O)CC5)cc4)[nH]c4nccc(Cl)c34)cc21
1000 to 10000 nM
2. C=CC(=O)Nc1cc(-c2c(-c3ccc(C4CCN(C)CC4)cc3)[nH]c3nccc(Cl)c23)ccc1C
≤ 100 nM
3. C=CC(=O)Nc1cc(-c2c(-c3ccc(C4CCN(C)CC4)cc3)[nH]c3ncccc23)ccc1C
100 to 500 nM
4. C=CC(=O)N1CCc2ccc(-c3c(-c4ccc(N5CCN(C)CC5)nc4)[nH]c4nccc(Cl)c34)cc21
500 to 1000 nM
5. C=CC(=O)Nc1cc(-c2c(-c3ccc(Cl)c(C(=O)N4CCOCC4)c3)[nH]c3nccc(Cl)c23)ccc1C
1000 to 10000 nM
6. C=CC(=O)Nc1cc(-c2c(-c3ccc(N4CCN(CC)CC4)cc3)[nH]c3nccc(Cl)c23)ccc1C
≤ 100 nM

# evaluate next
So, `C=CC(=O)N1CCc2ccc(-c3c(-c4ccc(OCCN(C)C)cc4)[nH]c4nccc(Cl)c34)cc21` ? Its GI50 was 100 to 500 nM

---

Molecular target: HER2 INS YVMA (Homo sapiens, UniProt P04626, INS775YVMA)
Construct: purchased DPF
Sequence (P04626 with tags, fused parts or gaps INS775YVMA): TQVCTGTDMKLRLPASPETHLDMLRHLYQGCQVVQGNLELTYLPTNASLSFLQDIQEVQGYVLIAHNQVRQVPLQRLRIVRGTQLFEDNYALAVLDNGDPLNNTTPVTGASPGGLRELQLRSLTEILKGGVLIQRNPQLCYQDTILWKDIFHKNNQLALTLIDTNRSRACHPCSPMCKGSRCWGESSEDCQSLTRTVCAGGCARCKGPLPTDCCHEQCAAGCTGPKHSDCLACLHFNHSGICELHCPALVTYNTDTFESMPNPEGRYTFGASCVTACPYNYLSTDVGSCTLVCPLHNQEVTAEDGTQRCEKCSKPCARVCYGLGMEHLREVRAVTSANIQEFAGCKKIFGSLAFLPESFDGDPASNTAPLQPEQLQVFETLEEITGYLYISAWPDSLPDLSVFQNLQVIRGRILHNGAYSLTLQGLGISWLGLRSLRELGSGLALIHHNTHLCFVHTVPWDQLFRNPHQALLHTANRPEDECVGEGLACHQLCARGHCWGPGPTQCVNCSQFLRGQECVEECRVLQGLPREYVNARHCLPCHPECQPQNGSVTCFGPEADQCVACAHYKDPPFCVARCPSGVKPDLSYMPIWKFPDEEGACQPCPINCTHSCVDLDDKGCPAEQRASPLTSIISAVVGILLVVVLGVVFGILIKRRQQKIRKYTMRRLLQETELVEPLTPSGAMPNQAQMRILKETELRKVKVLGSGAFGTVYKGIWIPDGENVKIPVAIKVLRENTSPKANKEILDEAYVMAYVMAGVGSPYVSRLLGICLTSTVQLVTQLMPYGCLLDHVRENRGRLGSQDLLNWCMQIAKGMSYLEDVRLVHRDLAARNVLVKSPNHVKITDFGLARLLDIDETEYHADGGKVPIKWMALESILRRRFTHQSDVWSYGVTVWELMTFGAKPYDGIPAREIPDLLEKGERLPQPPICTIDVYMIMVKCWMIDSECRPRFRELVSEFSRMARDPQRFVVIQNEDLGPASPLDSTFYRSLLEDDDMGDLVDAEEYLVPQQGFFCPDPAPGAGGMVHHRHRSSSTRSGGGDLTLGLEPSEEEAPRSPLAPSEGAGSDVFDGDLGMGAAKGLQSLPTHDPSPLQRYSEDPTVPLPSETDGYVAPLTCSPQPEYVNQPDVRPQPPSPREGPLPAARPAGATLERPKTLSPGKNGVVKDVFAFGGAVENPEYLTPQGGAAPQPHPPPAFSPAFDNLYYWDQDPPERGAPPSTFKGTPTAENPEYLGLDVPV
Test: Lance Kinase Activity Assay, HER2 INS YVMA (Her2 Exon 20 INSYVMA Lance)
Type: biochemical
Conditions: biochemical Lance assay
reported metric: IC50

Hi there! I need IC50 for each item below, if you can.
1. C=CC(=O)Nc1cc(-c2c(-c3ccc(OCCN(C)C)cc3)[nH]c3ncc(C(=O)OC(C)C)cc23)cc(F)c1C
2. C=CC(=O)Nc1cc(-c2c(-c3ccc(N4CCN(C)CC4)cc3)[nH]c3ncc(C(=O)OC4CCCCC4)cc23)ccc1C
3. C=CC(=O)Nc1cc(-c2c(-c3cccc(C(=O)N4CCC5(CCNC5=O)CC4)c3)[nH]c3nccc(Cl)c23)ccc1C
4. C=CC(=O)Nc1cc(-c2c(-c3ccc(CN4CCOCC4)cc3)[nH]c3nccc(Cl)c23)ccc1C
5. C=CC(=O)Nc1cc(-c2c(-c3ccc(CCO)cc3)[nH]c3ncc(C(=O)OC(C)C)cc23)ccc1C
6. C=CC(=O)N1CCc2ccc(-c3c(-c4ccc(N5CCN(C)CC5)cc4)[nH]c4nccc(OCC)c34)cc21 [Example 104, 2,2,2-trifluoroacetate]
7. C=CC(=O)N1CCOc2ccc(-c3c(-c4ccc(CN(C)C)cc4)[nH]c4nccc(Cl)c34)cc21

1: ≤ 100 nM; 2: 100 to 500 nM; 3: 1000 to 10000 nM; 4: ≤ 100 nM; 5: 100 to 500 nM; 6: ≤ 100 nM; 7: ≤ 100 nM

---

Target: Her2 Exon 20 INSYVMA Ba/F3 (Homo sapiens, UniProt P04626, DUP772-775, cells depend on it)
Assay: Her2 Exon 20 INSYVMA Ba/F3 CellTiter-Glo
Format: cell-based
Details: CellTiter-Glo, 72 h, read-out: Her2 Exon 20 INSYVMA Ba/F3 CTG IC50
Protocol: 2. Measurement of Cellular Activity The CellTiter-Glo Luminescent Cell Viability Assay (Promega) is a homogeneous method of determining the number of viable cells in culture. It is based on quantification of ATP, indicating the presence of metabolically active cells. […] Following incubation the luminescence is recorded on a Victor microplate reader (Perkin Elmer) using a 200 ms integration time. The data is then analyzed with Excel using the XLFIT Plugin (dose response Fit 205) for IC50-determination. […]
reported metric: GI50

Solved entries (count: 5):
1) C=CC(=O)Nc1cc(-c2c(-c3ccc(N4CCN(C)CC4)cc3)[nH]c3ncc(C(=O)NC4CCCCC4)cc23)ccc1C
100 to 500 nM
2) C=CC(=O)N1CCc2ccc(-c3c(-c4ccc(N5CCN(CC)CC5)cc4)[nH]c4nccc(Cl)c34)cc21
100 to 500 nM
3) C=CC(=O)Nc1cc(-c2c(-c3ccc(C4CCN(C)CC4)cc3)[nH]c3nccc(Cl)c23)ccc1C
≤ 100 nM
4) C=CC(=O)Nc1cc(-c2c(-c3ccc(N(C)CCN(C)C)cc3)[nH]c3ncc(C(=O)OC(C)C)cc23)ccc1C [Example 154, 2,2,2-trifluoroacetate]
100 to 500 nM
5) C=CC(=O)N1CCCc2ccc(-c3c(-c4cccc(CN5CCN(C)CC5)c4)[nH]c4nccc(Cl)c34)cc21
1000 to 10000 nM

Hi there! I need GI50 for each item below, if you can.
1. C=CC(=O)Nc1cc(-c2c(-c3ccc(N4CCN(C)CC4)cc3)[nH]c3ncc(CC(=O)N(C)C)cc23)ccc1C [Example 194, 2,2,2-trifluoroacetate]
2. C=CC(=O)Nc1cc(-c2c(-c3ccc(N4CCN(C)CC4)cc3)[nH]c3ncc(C(=O)OC(C)C)cc23)cc(F)c1C

1: 1000 to 10000 nM; 2: 100 to 500 nM

Hi there! I need GI50 for each item below, if you can.
1. C=CC(=O)Nc1cc(-c2c(-c3ccc(N4CCN(C)CC4)cc3)[nH]c3ncc(C(=O)OC4CCCC4)cc23)ccc1C
2. C=CC(=O)N1CCc2ccc(-c3c(-c4ccc(N5CCN(C)CC5)cc4)[nH]c4nccc(OC(C)C)c34)cc21 [Example 115, 2,2,2-trifluoroacetate]
3. C=CC(=O)Nc1cc(-c2c(-c3cccc(CN4CCN(C)CC4)c3)[nH]c3nccc(OC)c23)ccc1C
4. C=CC(=O)Nc1cc(-c2c(-c3ccc(N4CCN(C)CC4)cc3)[nH]c3ncc(C(=O)NCc4cccnc4)cc23)ccc1C
5. C=CC(=O)N1CCOc2ccc(-c3c(-c4ccc(N5CCN(C)CC5)cc4)[nH]c4nccc(Cl)c34)cc21 [Example 83, 2,2,2-trifluoroacetate]
6. C=CC(=O)Nc1cc(-c2c(-c3cccc(C(=O)NC4CCN(Cc5ccccc5)CC4)c3)[nH]c3nccc(Cl)c23)ccc1C
7. C=CC(=O)Nc1cc(-c2c(-c3ccc(N4CCN(C(C)=O)CC4)cc3)[nH]c3nccc(OC)c23)ccc1C
8. C=CC(=O)Nc1cc(-c2c(-c3ccnc(N4CCOCC4)c3)[nH]c3nccc(Cl)c23)ccc1C

500 to 1000 nM
100 to 500 nM
100 to 500 nM
1000 to 10000 nM
100 to 500 nM
100 to 500 nM
500 to 1000 nM
500 to 1000 nM

Hi there! I need GI50 for each item below, if you can.
1. C=CC(=O)Nc1cc(-c2c(-c3ccc(N4CCN(C)CC4)cc3)[nH]c3ncc(CC(=O)OC4COC4)cc23)ccc1C
2. C=CC(=O)Nc1cc(-c2c(-c3cccc(C(=O)N4CCC5(CCNC5=O)CC4)c3)[nH]c3nccc(Cl)c23)ccc1C
3. C=CC(=O)Nc1cc(-c2c(-c3ccc(C4CCN(C)CC4)cc3)[nH]c3ncc(C(=O)OC(C)C)cc23)cc(F)c1C
4. C=CC(=O)Nc1cc(-c2c(-c3ccc(N4CCOCC4)nc3)[nH]c3nccc(Cl)c23)ccc1C
5. C=CC(=O)Nc1cc(-c2c(-c3cccc(CN(C)C)c3)[nH]c3ncc(C(=O)OC(C)C)cc23)ccc1C
6. C=CC(=O)Nc1cc(-c2c(-c3ccc(N4CCN(C)CC4)cc3)[nH]c3ncc(C(=O)OCC)cc23)ccc1C
7. C=CC(=O)Nc1cc(-c2c(-c3ccc(N4CCN(C)CC4)cc3)[nH]c3ncc(C(=O)NCc4ccncc4)cc23)ccc1C

1000 to 10000 nM
1000 to 10000 nM
100 to 500 nM
1000 to 10000 nM
100 to 500 nM
100 to 500 nM
1000 to 10000 nM

Hi there! I need GI50 for each item below, if you can.
1. C=CC(=O)Nc1cc(-c2c(-c3ccc(OCCN4CCCC4)cc3)[nH]c3nccc(Cl)c23)ccc1C
2. C=CC(=O)Nc1cc(-c2c(-c3ccc(N4CCN(C)CC4)cc3)[nH]c3ncc(C(=O)OC4CCCCC4)cc23)ccc1C
3. C=CC(=O)N1CCCc2ccc(-c3c(-c4ccc(CN5CCN(C)CC5)nc4)[nH]c4nccc(Cl)c34)cc21
4. C=CC(=O)Nc1cc(-c2c(-c3ccc(F)c(C(=O)N4CCOCC4)c3)[nH]c3nccc(Cl)c23)ccc1C
5. C=CC(=O)Nc1cc(-c2c(-c3ccc(N4CCN(C)CC4)cc3)[nH]c3nccc(Cl)c23)ccc1C

["≤ 100 nM", "500 to 1000 nM", "100 to 500 nM", "1000 to 10000 nM", "≤ 100 nM"]

Reference source for all entries: patent US20220370440A1
